inhibition values by entry
# ASSAYED_TARGET: L-lactate dehydrogenase (Plasmodium falciparum (isolate CDC / Honduras)) (UniProt Q27743)
# Sequence (Q27743 whole entry, looked up): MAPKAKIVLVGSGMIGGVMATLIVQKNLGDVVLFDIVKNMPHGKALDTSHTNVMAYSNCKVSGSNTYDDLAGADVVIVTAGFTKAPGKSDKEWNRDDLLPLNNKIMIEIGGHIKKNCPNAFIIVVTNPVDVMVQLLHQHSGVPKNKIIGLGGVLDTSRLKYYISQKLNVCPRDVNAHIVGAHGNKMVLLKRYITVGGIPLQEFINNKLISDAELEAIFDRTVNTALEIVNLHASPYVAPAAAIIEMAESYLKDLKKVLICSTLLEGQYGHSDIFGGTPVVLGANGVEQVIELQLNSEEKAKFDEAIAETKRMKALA
# TEST_METHOD_NOTES: PfLDH activity inhibition – cell lysate, 3D7 strain, counter-screen for P. falciparum growth inhibition project (AID 2304);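 further: 0% = vehicle and 100% = reference inhibitor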
# TEST_SETTINGS: P. falciparum 3D7 crude extract, LDH APAD/NBT absorbance; at 2 µM; hits give high values
Activity calls are given as the source filed them. How the calls were made is not given here.

MOLECULE	inhibition
Cc1cc(Cc2ccc(S(=O)(=O)c3cc4c(cc3O)CCN(C)CC4)cc2)ccc1Cl	0% (inactive)
CCOC(=O)c1ccc(NC(=O)Nc2ccc(-c3ccc(-c4nc5ccc(C(F)(F)F)cc5[nH]4)cc3)cc2)cc1	-2% (inactive)
CNCCNCc1ccc(-c2ccc(-c3nc4ccc(F)cc4[nH]3)s2)cc1	2% (inactive)
Cc1ccc(C)c(-n2c(SCC(=O)Nc3ccc(C(N)=O)cc3)nnc2-c2cccc(Cl)c2)c1	4% (inactive)
COc1cc(OC)cc(C(=O)Nc2ccc(Nc3nc(C)cc(N(C)C)n3)cc2)c1	1% (inactive)
COc1cc(SC)ccc1C(=O)N1CC(C)CC(C)C1 (centres undefined)	-8% (inactive)
CN1CCCN(c2ccnc3cc4c(cc23)N(C(=O)c2ccc(Cl)cc2Cl)CC4)CC1	-2% (inactive)
OC[C@H]1CCCN1CC#Cc1cc2c(Nc3ccc(OCc4cccc(F)c4)c(Cl)c3)ncnc2s1	-2% (inactive)
COc1cc(-n2cnc3cc(-c4ccc([N+](=O)[O-])cc4)sc3c2=O)ccc1OCCN1CCCC1	-4% (inactive)

###

# ASSAYED_TARGET: L-lactate dehydrogenase (Plasmodium falciparum (isolate CDC / Honduras)) (UniProt Q27743)
# TEST_METHOD_NOTES: PfLDH activity inhibition – cell lysate, 3D7 strain, counter-screen for P. falciparum growth inhibition project (AID 2304);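 further: 0% = vehicle and 100% = reference inhibitor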
# TEST_SETTINGS: P. falciparum 3D7 crude extract, LDH APAD/NBT absorbance; at 2 µM; hits give high values
OBSERVED_PROPERTY: inhibition (%)

COMPOUND	ASSAYED_TARGET	OBSERVED_PROPERTY	RESULT_VALUE
O=C(NCCCN1CCC(N2CCCCC2)CC1)c1ccc2nc(N3CCCCC3)sc2c1	L-lactate dehydrogenase (Plasmodium falciparum (isolate CDC / Honduras)) (UniProt Q27743)	inhibition	-1
O=C(NCC1CCN(CCN2CCc3ccc4c(c3C2)OCO4)CC1)c1ccc(-c2ccc(C(F)(F)F)cc2)cc1	L-lactate dehydrogenase (Plasmodium falciparum (isolate CDC / Honduras)) (UniProt Q27743)	inhibition	-5
Cc1nnc2c(N(C(=O)NCCc3ccccc3)C(=O)NCCc3ccccc3)cc3cc(Cl)ccc3n12	L-lactate dehydrogenase (Plasmodium falciparum (isolate CDC / Honduras)) (UniProt Q27743)	inhibition	-5
O=c1c2ccccc2[nH]c2nc3ccccc3c(Nc3ccccc3)c12	L-lactate dehydrogenase (Plasmodium falciparum (isolate CDC / Honduras)) (UniProt Q27743)	inhibition	6
Cc1cccn2c(=O)c3cc(C(=O)NC4CCCCC4)c(=N)n(CCCn4ccnc4)c3nc12	L-lactate dehydrogenase (Plasmodium falciparum (isolate CDC / Honduras)) (UniProt Q27743)	inhibition	-1
CN1CC[C@@H](Oc2cc(C(=O)NCc3ccc(Cl)c(Cl)c3)ccc2C(F)(F)F)C1	L-lactate dehydrogenase (Plasmodium falciparum (isolate CDC / Honduras)) (UniProt Q27743)	inhibition	2
COc1ccc(Cl)cc1N1CCN(CCCNC(=O)c2ccc(-c3nc4cc(Cl)c(F)cc4[nH]3)s2)CC1	L-lactate dehydrogenase (Plasmodium falciparum (isolate CDC / Honduras)) (UniProt Q27743)	inhibition	4
Nc1nc(N)c2c(ccc3c2ccn3Cc2ccc(F)cc2)n1	L-lactate dehydrogenase (Plasmodium falciparum (isolate CDC / Honduras)) (UniProt Q27743)	inhibition	1
Cc1cc(N2CCCCC2)nc2ccc(NC(=O)c3cccc([N+](=O)[O-])c3)cc12	L-lactate dehydrogenase (Plasmodium falciparum (isolate CDC / Honduras)) (UniProt Q27743)	inhibition	2
O=C(CCc1cccnc1)Nc1ccc(-c2cccc(-c3nc4ccc(F)cc4[nH]3)c2)cc1	L-lactate dehydrogenase (Plasmodium falciparum (isolate CDC / Honduras)) (UniProt Q27743)	inhibition	2
COc1cccc(C(=O)NC(c2ccccc2OC)c2cc(Cl)c3cccnc3c2O)c1 (centres undefined)	L-lactate dehydrogenase (Plasmodium falciparum (isolate CDC / Honduras)) (UniProt Q27743)	inhibition	4
Cc1ccc(F)cc1S(=O)(=O)NCC(C)c1ccc(NC(=O)Nc2cccc(F)c2)cc1 (centres undefined)	L-lactate dehydrogenase (Plasmodium falciparum (isolate CDC / Honduras)) (UniProt Q27743)	inhibition	2
O=C(NC1CCC(N2CCC(c3nc4ccccc4s3)CC2)CC1)c1cc2ccccc2[nH]1 (centres undefined)	L-lactate dehydrogenase (Plasmodium falciparum (isolate CDC / Honduras)) (UniProt Q27743)	inhibition	-1
Cc1cc(Nc2nc(NCc3cccnc3)nc3ccccc23)n[nH]1	L-lactate dehydrogenase (Plasmodium falciparum (isolate CDC / Honduras)) (UniProt Q27743)	inhibition	1
Cc1ccc(C2CC(c3cccs3)=NN2C(=O)c2ccc(Br)o2)cc1 (centres undefined)	L-lactate dehydrogenase (Plasmodium falciparum (isolate CDC / Honduras)) (UniProt Q27743)	inhibition	0
O=C1Nc2cccc3c2C1(CCCN1CCC(c2c[nH]c4cc(C(F)(F)F)ccc24)CC1)CCC3 (centres undefined)	L-lactate dehydrogenase (Plasmodium falciparum (isolate CDC / Honduras)) (UniProt Q27743)	inhibition	-2
CCn1cc(-c2nc(-c3cc(OC)cc(OC)c3)no2)c(=O)c2ccccc21	L-lactate dehydrogenase (Plasmodium falciparum (isolate CDC / Honduras)) (UniProt Q27743)	inhibition	0
COc1cc(F)c2ncc(Cl)c(CCN3CCC(NCc4ccc5c(n4)NC(=O)CO5)CC3)c2c1	L-lactate dehydrogenase (Plasmodium falciparum (isolate CDC / Honduras)) (UniProt Q27743)	inhibition	-1
CCCCN(Cc1cc(Cl)c(OCC)c(OC)c1)c1ccc(C(O)(C(F)(F)F)C(F)(F)F)cc1	L-lactate dehydrogenase (Plasmodium falciparum (isolate CDC / Honduras)) (UniProt Q27743)	inhibition	-6
Cc1cc(Nc2ccccc2)nc(Nc2ccccc2C)n1	L-lactate dehydrogenase (Plasmodium falciparum (isolate CDC / Honduras)) (UniProt Q27743)	inhibition	5
CCN(CC)CCN(Cc1ccc(-c2ccc(C(F)(F)F)cc2)cc1)C(=O)Cn1c(CCc2cc(F)ccc2F)nc(=O)c2ccccc21	L-lactate dehydrogenase (Plasmodium falciparum (isolate CDC / Honduras)) (UniProt Q27743)	inhibition	4
COc1ccc2[nH]c(C(=O)Nc3ccc4nc(-c5ccccc5)[nH]c4c3)cc2c1	L-lactate dehydrogenase (Plasmodium falciparum (isolate CDC / Honduras)) (UniProt Q27743)	inhibition	-1
CN(C)CCC1CCN(CCS(=O)(=O)c2cccc(Nc3ncc(-c4cccc(F)c4)cn3)c2)CC1	L-lactate dehydrogenase (Plasmodium falciparum (isolate CDC / Honduras)) (UniProt Q27743)	inhibition	-2
Cc1cccc(NC(=O)Nc2ccc(I)c(OCCN(C)C)c2)c1C	L-lactate dehydrogenase (Plasmodium falciparum (isolate CDC / Honduras)) (UniProt Q27743)	inhibition	1
Cc1cc(C(=O)Nc2ccc3c(c2)CCN3C2CCN(Cc3cc(F)cc(F)c3F)C2)no1 (centres undefined)	L-lactate dehydrogenase (Plasmodium falciparum (isolate CDC / Honduras)) (UniProt Q27743)	inhibition	0
COc1cccc(CCNCCCCCCNCCc2ccc(Cl)cc2)c1	L-lactate dehydrogenase (Plasmodium falciparum (isolate CDC / Honduras)) (UniProt Q27743)	inhibition	-1
Cc1ccc(CNC(=O)[C@H](Cc2ccccc2)Nc2ccnc(NCC3CCCCC3)n2)cc1	L-lactate dehydrogenase (Plasmodium falciparum (isolate CDC / Honduras)) (UniProt Q27743)	inhibition	-2
Cc1ccc2c(c1)NC[C@@]21CCN(C[C@@H](O)C2CCN(c3ccnc(Cl)c3)CC2)C[C@@H]1C	L-lactate dehydrogenase (Plasmodium falciparum (isolate CDC / Honduras)) (UniProt Q27743)	inhibition	-5
CCCC1N=C(N)N=C(N)N1c1ccc(OC)cc1 (centres undefined)	L-lactate dehydrogenase (Plasmodium falciparum (isolate CDC / Honduras)) (UniProt Q27743)	inhibition	-3
OCCOCCNCc1cccc(C#Cc2cc3ncnc(Nc4ccc(OCc5cccc(F)c5)c(Cl)c4)c3s2)n1	L-lactate dehydrogenase (Plasmodium falciparum (isolate CDC / Honduras)) (UniProt Q27743)	inhibition	0
CCCCCCCCc1[nH]c(C)c(Br)c(=O)c1Br	L-lactate dehydrogenase (Plasmodium falciparum (isolate CDC / Honduras)) (UniProt Q27743)	inhibition	2
O=C(Nc1cccc(-c2ccc(-c3nc4ccccc4[nH]3)cc2)c1)c1ccncc1	L-lactate dehydrogenase (Plasmodium falciparum (isolate CDC / Honduras)) (UniProt Q27743)	inhibition	-1
Oc1cc(Nc2ccnc3cc(-c4ccc(CN5CCCCC5)o4)ccc23)c(Cl)cc1F	L-lactate dehydrogenase (Plasmodium falciparum (isolate CDC / Honduras)) (UniProt Q27743)	inhibition	5
CN(C)c1nc2cc(-n3cnc4cc(-c5ccc(Cl)cc5)sc4c3=O)ccc2n1CCCN1CCCCC1	L-lactate dehydrogenase (Plasmodium falciparum (isolate CDC / Honduras)) (UniProt Q27743)	inhibition	1
Cc1[nH]c(C)c(-c2ccc(-c3ccccc3C(F)(F)F)nc2)c(=O)c1Br	L-lactate dehydrogenase (Plasmodium falciparum (isolate CDC / Honduras)) (UniProt Q27743)	inhibition	-3
CC(C)c1ccc(CN2CCC(CNC(=O)c3cc(-c4cccc(F)c4)cs3)C2)cc1 (centres undefined)	L-lactate dehydrogenase (Plasmodium falciparum (isolate CDC / Honduras)) (UniProt Q27743)	inhibition	5
CCN(CC)CCN(Cc1ccc(-c2ccc(C(F)(F)F)cc2)cc1)C(=O)Cn1c(CCc2ccc(F)c(F)c2)cc(=O)c2ccccc21	L-lactate dehydrogenase (Plasmodium falciparum (isolate CDC / Honduras)) (UniProt Q27743)	inhibition	-1
CN1CCN(c2ccc3nccc(CCN4CCC(NCc5ccc6c(n5)NC(=O)CO6)CC4)c3n2)CC1	L-lactate dehydrogenase (Plasmodium falciparum (isolate CDC / Honduras)) (UniProt Q27743)	inhibition	-1
O=C(NCCCCCN1CCCN(C(=O)Nc2ccc(Cl)c(C(F)(F)F)c2)CC1)[C@@H]1C[C@H]1c1ccc(Cl)c(Cl)c1	L-lactate dehydrogenase (Plasmodium falciparum (isolate CDC / Honduras)) (UniProt Q27743)	inhibition	3
